Parameter: phytotoxicity rating CORN (crop damage). Scope: all listed entries.
# Tested on: field corn (Zea mays L., var. Dekalb 535, CORN)
# assayMethodText: Post-emerge test, crop safety
# Assay type: in vivo
# experimentalSetup: post-emerge, 250 g ai/ha, 14 days after application, rating scale 0-100

{"columns": ["molecule", "phytotoxicity rating CORN (crop damage)"],
 "data": [
  ["COc1c(Cl)cc(F)c(-n2c(=O)cc(C(F)(F)F)n(C)c2=O)c1NC(=O)OC(c1ccccc1)C1CC1 (stereo not drawn)", 80],
  ["COc1c(Cl)cc(F)c(-n2c(=O)cc(C(F)(F)F)n(C)c2=O)c1NC(=O)OCc1ccc(C)c(C)c1", 20],
  ["Cc1c(Cl)cc(F)c(-n2c(=O)cc(C(F)(F)F)n(C)c2=O)c1NC(=O)OCc1ccccc1Cl", 75],
  ["COc1c(Cl)cc(F)c(-n2c(=O)cc(C(F)(F)F)n(C)c2=O)c1NC(=O)OCc1cccc(F)c1", 100],
  ["COc1c(Cl)cc(F)c(-n2c(=O)cc(C(F)(F)F)n(C)c2=O)c1NC(=O)OCc1cc(F)ccc1F", 100],
  ["Cn1c(C(F)(F)F)cc(=O)n(-c2ccc(Cl)cc2NC(=O)OCc2ccccc2F)c1=O", 80],
  ["Cn1c(C(F)(F)F)cc(=O)n(-c2c(F)cc(Cl)c(OCC#N)c2NC(=O)OCc2ccccc2)c1=O", 80],
  ["COc1c(Cl)cc(F)c(-n2c(=O)cc(C(F)(F)F)n(C)c2=O)c1NC(=O)Oc1c(C)cc(C)cc1C", 15],
  ["Cc1ccc(OC(=O)Nc2c(C)c(Cl)cc(F)c2-n2c(=O)cc(C(F)(F)F)n(C)c2=O)cc1C", 70],
  ["COC(=O)Nc1c(OC)c(Cl)cc(F)c1-n1c(=O)cc(C(F)(F)F)n(C)c1=O", 20],
  ["COc1c(Cl)cc(F)c(-n2c(=O)cc(C(F)(F)F)n(C)c2=O)c1NC(=O)OCc1ccc2c(c1)OCO2", 90],
  ["COc1c(Cl)cc(F)c(-n2c(=O)cc(C(F)(F)F)n(C)c2=O)c1NC(=O)OCc1ccc(F)c(F)c1", 99],
  ["COc1c(Cl)cc(F)c(-n2c(=O)cc(C(F)(F)F)n(C)c2=O)c1NC(=O)OCc1ccccn1", 100],
  ["COc1c(Cl)cc(F)c(-n2c(=O)cc(C(F)(F)F)n(C)c2=O)c1NC(=O)OC(C)c1ccccc1 (stereo not drawn)", 65],
  ["Cn1c(C(F)(F)F)cc(=O)n(-c2ccc(C(N)=S)cc2NC(=O)c2ccc3ccccc3c2)c1=O", 20],
  ["COc1ccc(COC(=O)Nc2c(OC)c(Cl)cc(F)c2-n2c(=O)cc(C(F)(F)F)n(C)c2=O)cc1", 70],
  ["Cn1c(C(F)(F)F)cc(=O)n(-c2c(F)cc(Cl)c(OCC#N)c2NC(=O)c2ccc3ccccc3c2)c1=O", 20],
  ["COc1c(Cl)cc(F)c(-n2c(=O)cc(C(F)(F)F)n(C)c2=O)c1NC(=O)OCc1ccc(F)cc1", 100],
  ["CCCCCC(=O)Nc1c(OC)c(Cl)cc(F)c1-n1c(=O)cc(C(F)(F)F)n(C)c1=O", 40],
  ["COc1c(Cl)cc(F)c(-n2c(=O)cc(C(F)(F)F)n(C)c2=O)c1NC(=O)OCc1ccc(C(F)(F)F)cc1", 10],
  ["Cn1c(C(F)(F)F)cc(=O)n(-c2c(F)cc(Cl)c(Oc3ncccc3[N+](=O)[O-])c2NC(=O)c2ccc3ccccc3c2)c1=O", 90]
]}

----------
Parameter: Pre-emerge Herbicidal Activity RICE. Scope: all listed entries.
# System: upland rice (Oryza sp., var. Tebonnet, RICE)
# assayMethodText: Pre-emerge test, crop safety
# Format: in vivo
# experimentalSetup: crop damage, pre-emerge, rate 63 g ai/ha, phytotoxicity rating 0-100 at 14 days after application

{"columns": ["structure", "testedSystem", "Pre-emerge Herbicidal Activity RICE"],
 "data": [
  ["Cc1c(Cl)cc(F)c(-n2c(=O)cc(C(F)(F)F)n(C)c2=O)c1NC(=O)OCc1ccc(Cl)cc1", "upland rice (Oryza sp., var. Tebonnet, RICE)", 0],
  ["COc1c(Cl)cc(F)c(-n2c(=O)n3n(c2=O)CCCC3)c1NC(=O)c1ccc(F)cc1F", "upland rice (Oryza sp., var. Tebonnet, RICE)", 80],
  ["C#CCOc1c(Cl)cc(F)c(N2C(=O)C3=C(CCCC3)C2=O)c1NC(=O)c1ccc(F)cc1F", "upland rice (Oryza sp., var. Tebonnet, RICE)", 10],
  ["O=C(Nc1cc(Cl)ccc1-n1c(=O)n2n(c1=S)CCCC2)c1ccc2ccccc2c1", "upland rice (Oryza sp., var. Tebonnet, RICE)", 0]
]}

----------
# Test system: upland rice (Oryza sp., var. Tebonnet, RICE)
# assayMethodText: Pre-emerge test, crop safety
# Format: in vivo
# experimentalSetup: crop damage, pre-emerge, rate 250 g ai/ha, phytotoxicity rating 0-100 at 14 days after application

{"columns": ["structure", "Pre-emerge Herbicidal Activity RICE"],
 "data": [
  ["COc1c(Cl)cc(F)c(-n2c(=O)n3n(c2=O)CCCC3)c1NC(=O)c1ccc(F)cc1F", 90],
  ["Cc1c(Cl)cc(F)c(-n2c(=O)cc(C(F)(F)F)n(C)c2=O)c1NC(=O)OCc1ccc([N+](=O)[O-])cc1", 80],
  ["COc1cccc(COC(=O)Nc2c(C)c(Cl)cc(F)c2-n2c(=O)cc(C(F)(F)F)n(C)c2=O)c1", 90],
  ["COc1c(Cl)cc(F)c(-n2ncc(C(F)(F)F)c(C)c2=O)c1NC(=O)c1ccc2ccccc2c1", 15],
  ["O=C(Nc1cc(Cl)ccc1-n1c(=O)n2n(c1=S)CCCC2)c1ccc2ccccc2c1", 10],
  ["COc1c(Cl)cc(F)c(-n2nnn(CCCF)c2=O)c1NC(=O)COCc1ccccc1", 60],
  ["COc1c(Cl)cc(F)c(-n2nnn(CCCF)c2=O)c1N", 20]
]}

----------
# Test system: common ragweed (Ambrosia artemisizfolia L., AMBEL)
# assayMethodText: Pre-emerge test, greenhouse herbicide activity screening
# Type: in vivo
# experimentalSetup: 63 g ai/ha; rating scale 0-100, 14 days after application
# Protocol: A standard greenhouse herbicide activity screening system was used to evaluate the herbicidal efficacy and crop safety of these test compounds. […] At 14 days after application of the test materials, phytotoxicity ratings were recorded. […]
outcomeMeasure: Pre-emerge herbicidal activity, phytotoxicity rating AMBEL

{"columns": ["compound", "observedResult"],
 "data": [
  ["CCCCCOC(=O)C(Cl)Cc1c(OC)c(Cl)cc(F)c1-n1c(=O)cc(C(F)(F)F)n(C)c1=O (single isomer, unassigned) [14-11]", 0],
  ["CCCCCOC(=O)C(Cl)Cc1c(OC)c(Cl)cc(F)c1-n1c(=O)cc(C(F)(F)F)n(C)c1=O (single isomer, unassigned) [14-10]", 50],
  ["COc1c(Cl)cc(F)c(-n2c(=O)cc(C(F)(F)F)n(C)c2=O)c1CC(C)(Cl)C(=O)OCC(C)C (stereo not shown) [14-40]", 30],
  ["CCOC(=O)CCc1c(OC)c(Cl)cc(F)c1-n1c(=O)cc(C(F)(F)F)n(C)c1=O [14-1]", 0]
]}

----------
# System: green foxtail (Setaria viridis, SETVI)
# assayMethodText: Post-emerge test, greenhouse herbicide activity screening
# Type: in vivo
# experimentalSetup: post-emerge, 63 g ai/ha, 14 days after application, rating scale 0-100
# note: exactly 30 is not below, so it is class 0; use class 1 for SETVI phytotoxicity rating strictly under it

{"columns": ["structure", "labelValue"],
 "data": [
  ["COc1c(Cl)cc(F)c(-n2c(=O)cc(C(F)(F)F)n(N)c2=O)c1NC(=O)COCc1ccccc1", "class 0"],
  ["Cn1c(C(F)(F)F)cc(=O)n(-c2c(F)cc(Cl)cc2NC2CC2)c1=O", "class 1"],
  ["CCOC(=O)CSCC(=O)Nc1c(OC)c(Cl)cc(F)c1-n1c(=O)cc(C(F)(F)F)n(C)c1=O", "class 1"],
  ["Cn1c(C(F)(F)F)cc(=O)n(-c2ccc(C#N)cc2NC(=O)c2ccc3ccccc3c2)c1=O", "class 0"],
  ["Cn1c(C(F)(F)F)cc(=O)n(-c2ccc(Cl)cc2NC(=O)c2ccc3ccccc3c2)c1=O", "class 0"],
  ["COc1c(Cl)cc(F)c(-n2c(=O)cc(C(F)(F)F)n(C)c2=O)c1NC(=O)COc1ccc(F)cc1", "class 0"],
  ["COc1c(Cl)cc(F)c(-n2c(=O)cc(C(F)(F)F)n(C)c2=O)c1NC(=O)CSc1ccc2ccccc2c1", "class 1"],
  ["N#CCOc1c(Cl)cc(F)c(-n2c(=O)cc(C(F)(F)F)n(N)c2=O)c1NC(=O)c1ccc2ccccc2c1", "class 1"],
  ["COc1c(Cl)cc(F)c(-n2c(=O)cc(C(F)(F)F)n(C)c2=O)c1NC(=O)CCc1cc(C)ccc1C", "class 0"],
  ["CCCSCC(=O)Nc1c(OC)c(Cl)cc(F)c1-n1c(=O)cc(C(F)(F)F)n(C)c1=O", "class 1"]
]}

Origin of the recorded values: patent US6355799B1
